# run description: Cytotoxicity against human PMP457-2 cells assessed as inhibition of cell proliferation measured after 24 hrs by crystal violet staining assay
# Assay type: functional, cell-based
# stated conditions: PMP457-2, 24 h
result type: log10 IC50 (log10 of the value in µM)
For clarity, the numbers are log10 values of IC50 expressed in µM.

The following molecules have reported results that may help.
CSC1=CC(=O)[C@H](C)O[C@H]1O[C@H]1CC[C@H](O[C@H]2[C@H](O)C[C@H](c3ccc4c(c3O)C(=O)c3ccc(C[C@](C)(CC(=O)O)O[C@H]5CC[C@H](O[C@H]6CC[C@H](O)[C@H](C)O6)[C@H](C)O5)c(O)c3C4=O)O[C@@H]2C)O[C@H]1C; 0.89
O=c1[nH]cc(F)c(=O)[nH]1; 0.30
C[C@@H]1O[C@@H](O[C@H]2[C@H](O)C[C@H](c3ccc4c(c3O)C(=O)c3ccc(C[C@@](C)(O)CC(=O)O)c(O)c3C4=O)O[C@@H]2C)CC[C@@H]1O; 0.77

Working through the 5 molecules below one at a time, give log10 IC50 for each.
1. C[C@@H]1O[C@@H](O[C@H]2[C@H](O)C[C@H](c3ccc4c(c3O)C(=O)c3c(O)cc(C[C@@](C)(O)CC(=O)O)c(O)c3C4=O)O[C@@H]2C)CC[C@@H]1O[C@H]1CC[C@H](O)[C@H](C)O1
2. C[C@@H]1O[C@@H](O[C@H]2[C@H](O)C[C@H](c3ccc4c(c3O)C(=O)c3c(O)cc(C[C@](C)(CC(=O)O)O[C@H]5CC[C@H](O[C@H]6CC[C@H](O)[C@H](C)O6)[C@H](C)O5)c(O)c3C4=O)O[C@@H]2C)CC[C@@H]1O[C@H]1CC[C@H](O)[C@H](C)O1
3. C[C@@H]1O[C@@H](O[C@H]2[C@H](O)C[C@H](c3ccc4c(c3O)C(=O)c3ccc(C[C@](C)(CC(=O)O)O[C@H]5CC[C@H](O[C@H]6CC[C@H](O)[C@H](C)O6)[C@H](C)O5)c(O)c3C4=O)O[C@@H]2C)CC[C@@H]1O[C@H]1CC[C@H](O)[C@H](C)O1
4. C[C@H]1O[C@@H](c2ccc3c(c2O)C(=O)c2ccc(C[C@@](C)(O)CC(=O)O)c(O)c2C3=O)C[C@@H](O)[C@@H]1O
5. C[C@@H]1O[C@@H](O[C@H]2[C@H](O)C[C@H](c3ccc4c(c3O)C(=O)c3ccc(C[C@@](C)(O)CC(=O)O)c(O)c3C4=O)O[C@@H]2C)CC[C@@H]1O[C@H]1CC[C@H](O)[C@H](C)O1

[0.74, 0.28, 1.04, 0.83, 1.36]
